test_description: gradient 5% acetonitrile 3 min, to 50% in 2 min, to 85% in 15 min, held 3 min, 100 µL/min
applied_conditions: column: Zorbax Extend-C18 2.1 x 50 mm; eluents: water / acetonitrile, 0.1% formic acid
Could you please report measured RP-LC retention time for the items listed next?
Give bare numbers, in s.

For orientation, consider the following solved cases.
>>> print(df.to_string())
                                   compound  numeric_result
0  O=C(c1ccc2c(c1)CCC(=O)N2Cc1ccccc1)N1CCN(c2ccc(F)cc2)CC1             923
1  CCc1ccc(Nc2nc(C(=O)NC3CCCC3)nc3ccccc23)cc1             934
2  O=C(NCCCN1CCCc2ccccc21)C1CCc2nc(N3CCCCC3)ncc2C1 (stereo not given)             827

Could you tell me RP-LC retention time for each of these compounds? They are listed below.
1. CCOC(=O)C1=C(C)NC2=C(C(=O)C(C(=O)OC)C(C)C2)C1c1ccccc1OC (stereo not given)
2. O=C(c1ccc(-c2cccnc2)nc1)N1CCN(c2cccc(Cl)c2)CC1

Ans.
1: 849; 2: 726

###

test_description: gradient 5% acetonitrile 3 min, to 50% in 2 min, to 85% in 15 min, held 3 min, 100 µL/min
applied_conditions: column: Zorbax Extend-C18 2.1 x 50 mm; eluents: water / acetonitrile, 0.1% formic acid
Could you please report measured RP-LC retention time for the items listed next?
Give bare numbers, in s.

In [3]: df
Out[3]:
                                   compound  measurement_unit  numeric_result
0  O=C(c1cc(-c2ccncc2)n[nH]1)N1CCC(C(=O)N2CCN(c3ccc(F)cc3)CC2)CC1                 s             611
1  CCN1C(=O)COc2ccc(-c3csc(NC(=O)C4CCCCC4)n3)cc21                 s            1050
2  CC(=O)N1c2ccc(S(=O)(=O)N3CCCC3)cc2CC1C(=O)NCCCN1CCCCC1 (centres undefined)                 s             626
3  CCc1nc2c(c(=O)n1CC(=O)Nc1cccc(OC)c1)CN(Cc1ccccc1)CC2                 s             652
4  O=C(CSc1nnc2c3cc(-c4ccc(F)cc4)nn3ccn12)Nc1ccc(F)cc1Cl                 s             940

Could you tell me RP-LC retention time for each of these compounds? They are listed below.
1. COc1cccc(Cn2ccn3nc(-c4ccc(OC)c(OC)c4)cc3c2=O)c1
2. COc1ccc(C2CC(=O)N(c3ccc(F)c(F)c3)C(=O)C2)cc1
3. Cn1c(C(=O)NC2CCCCC2)cc2c(-c3cccs3)nn(-c3ccccc3)c21
4. Cc1ccc(CN2CCN(CC(=O)Nc3ccc(C)cn3)C(=O)C2=O)cc1

Ans.
916
910
1210
664

###

test_description: gradient 5% acetonitrile 3 min, to 50% in 2 min, to 85% in 15 min, held 3 min, 100 µL/min
applied_conditions: column: Zorbax Extend-C18 2.1 x 50 mm; eluents: water / acetonitrile, 0.1% formic acid
test_readout: RP-LC retention time (s)
One number for each entry, in s.

In [3]: df
Out[3]:
                                   molecule  numeric_result
0  O=C(Cn1nc2ccc(-c3ccc(Cl)cc3)nn2c1=O)N1CCN(c2ccc(F)cc2)CC1             876
1  C=CCN(CC=C)c1nc(-c2ccc([N+](=O)[O-])cc2)nc2ccccc12            1060
2  Cc1ccc(-c2nc(Cn3cccc3C(=O)N3CCCC3)no2)cc1             972
3  CN1C[C@@H]2C(=O)N(CCc3ccccc3)C(=O)[C@@H]2C1             605
4  O=C(NCCc1c[nH]c2ccc(Cl)cc12)c1cc2n(n1)CCCN(Cc1ccc(F)cc1)C2=O             927

Could you tell me RP-LC retention time for each of these molecules? They are listed below.
1. Cc1cccc(NC(=O)N2CCCC2C(=O)NC2CC2)c1 (centres undefined)
2. O=C(N1CCCC(c2nnc(-c3cccs3)o2)C1)C1(c2ccccc2)CCOCC1 (centres undefined)
3. OCC1CN(c2ncccn2)CC12CCN(Cc1ccc(Cl)cc1F)CC2 (centres undefined)
4. CCC(Oc1ccc(=O)n(-c2ccc(F)cc2)n1)C(=O)NCCc1ccco1 (centres undefined)
5. O=C(NCc1ccco1)c1ccc2c(c1)CC(=O)N2Cc1ccc(F)cc1

Ans.
1: 655; 2: 812; 3: 590; 4: 759; 5: 794

###

test_description: gradient 5% acetonitrile 3 min, to 50% in 2 min, to 85% in 15 min, held 3 min, 100 µL/min
applied_conditions: column: Zorbax Extend-C18 2.1 x 50 mm; eluents: water / acetonitrile, 0.1% formic acid
Decision: RP-LC retention time compared against 800 s; not below it gives y, below it gives n.

In [3]: df
Out[3]:
                                   molecule  label_class
0  CCOc1ccc(OCC)c(S(=O)(=O)Nc2ccc(-c3cn4ccc(C)nc4n3)cc2)c1            n
1  CN(C)C(=O)c1ccc2c(c1)N(CC(=O)NCCN1CCCCCC1)C(=O)C1CCCCN21 (stereo not given)            n
2         CCn1cc(CC(=O)NC2CCCCCC2)c2cccnc21            n
3  O=c1ccc(-c2ccccc2F)nn1Cc1nc(-c2ccc3c(c2)OCO3)no1            y
4  Cc1cccc(CNc2nnc(-c3nc(C4CC4)no3)c3ccccc23)c1            y

Qu. Decide: is the reported value of RP-LC retention time for CN(C)c1ccc(CNC(=O)C2CCN(c3cnc4nccnc4c3)CC2)cc1 equal to or greater than 800 s?
Ans. n

Qu. Thanks! And CCc1nccn1Cc1nc(-c2ccc(OC)cc2)no1 ?
Ans. n

Qu. Thanks! And CCOC(=O)N1CCN(C(=O)CSc2nncn2C)CC1 ?
Ans. n

Qu. Thanks! And CCN1C(=O)COc2ccc(-c3noc(-c4ccc(OC)cc4OC)n3)cc21 ?
Ans. y

Qu. Thanks! And Cc1nnc(-c2cn(CC(=O)Nc3ccc(Cl)cc3)c3ccccc23)o1 ?
Ans. y

Qu. Thanks! And CCCCN(C)C(=O)Cn1c(C2CC(=O)N(Cc3ccccc3)C2)nc2ccccc21 (stereo not given) ?
Ans. n

###

test_description: gradient 5% acetonitrile 3 min, to 50% in 2 min, to 85% in 15 min, held 3 min, 100 µL/min
applied_conditions: column: Zorbax Extend-C18 2.1 x 50 mm; eluents: water / acetonitrile, 0.1% formic acid
Rule: RP-LC retention time below 900 s gives t. Equal to or above 900 s gives f.

Worked cases, answers included:
                                   molecule  label_class
0   O=C(Cc1ccc(Cl)cc1)NCC(=O)N1CCCc2ccccc21            t
1  Cc1ccccc1-c1noc(CN2N=NC3C(=O)N(c4ccc(C(C)C)cc4)C(=O)C32)n1 (stereo not given)            f
2  Cc1ccccc1NS(=O)(=O)c1cccc(-c2nc(-c3ccccc3)no2)c1            f

Qu. Threshold test, RP-LC retention time < 900 s: O=C(CC1=C2CCCCC2NC1=O)NCCc1c[nH]c2ccccc12 (stereo not given)
Ans. t

Qu. Thanks! And Cc1nc(CC(=O)Nc2cc(F)cc(F)c2)cs1 ?
Ans. t

Qu. Thanks! And COCCCNC(=O)c1ccc(-n2nc(Sc3ccc(Cl)cc3)ccc2=O)cc1 ?
Ans. t

Qu. Thanks! And O=C(NC1CCSC1=O)c1ccccc1 (stereo not given) ?
Ans. t

Qu. Thanks! And CCCn1c(CCNC(=O)c2ccc(C)cc2)nc2cccnc21 ?
Ans. t

Qu. Thanks! And CCOC(=O)c1c(NCCc2cccs2)c2cc(Cl)ccc2[nH]c1=O ?
Ans. t

###

test_description: gradient 5% acetonitrile 3 min, to 50% in 2 min, to 85% in 15 min, held 3 min, 100 µL/min
applied_conditions: column: Zorbax Extend-C18 2.1 x 50 mm; eluents: water / acetonitrile, 0.1% formic acid
Could you please report measured RP-LC retention time for the items listed next?
Hi, when you answer, please include the unit after the number. Thanks!

For orientation, consider the following solved cases.
In [3]: df
Out[3]:
                                   compound  result
0  CC1CCN(CCCNc2nc3ccncc3n(Cc3ccccc3)c2=O)CC1   731 s
1  CC(=O)Nc1onc(C)c1-c1ccc(C)c(S(=O)(=O)NCc2ccc(N(C)C)cc2)c1  1170 s
2  O=C(CCn1nnc2cc(-c3noc(CCC4CCCC4)n3)ccc21)N1CCCC1  1050 s
3    Cc1cc(C)n(-c2ncnc3c2cnn3Cc2ccccc2Cl)n1  1330 s
4  CC(C)c1ccc(CNC(=O)Cc2nnc(-c3ccccn3)o2)cc1   578 s

Could you tell me RP-LC retention time for each of these compounds? They are listed below.
1. Cc1ccc(NS(=O)(=O)c2cc(-c3[nH]ncc3C(=O)N3CCCCC3)oc2C)cc1C
2. CCc1nc(-c2ccc(-c3noc(CNC(=O)c4ccco4)n3)cc2)cs1
3. CC1(C)CC(=O)C2=C(C1)Nc1ccccc1N(CC(=O)Nc1ccccc1)C2c1ccc(F)cc1 (centres undefined)
4. O=C(CN1CCN(Cc2ccc(F)cc2)C1=O)NCCCn1cccn1
5. NC(C(=O)N[C@@H]1C(=O)N2C(C(=O)O)=C(Cl)CS[C@H]12)c1ccccc1 (some centres undefined)
6. CC(C)Cn1cc(S(=O)(=O)Nc2ccc(Cl)cc2)c2cccnc21

Ans.
1. 821 s
2. 924 s
3. 938 s
4. 672 s
5. 563 s
6. 988 s
